Sourced from patent US20110135636A1

- TARGET OR SYSTEM: T1, EGFRvIII (deletion mutant EGFR) (human, UniProt P00533 25-645, limits assumed)
- T1 construct: also called deltaEGFR; rhEGFRvIII
- ASSAY REMARKS: EGFRvIII ELISA (Example 1)
OBSERVABLE: binding result

antibody 1344 (antibody, human IgG1, kappa, V domains shown, Chimeric IgG1 kappa) VH: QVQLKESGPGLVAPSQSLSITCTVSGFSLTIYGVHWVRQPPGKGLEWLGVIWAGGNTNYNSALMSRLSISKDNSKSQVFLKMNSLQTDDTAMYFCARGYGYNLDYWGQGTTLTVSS VL: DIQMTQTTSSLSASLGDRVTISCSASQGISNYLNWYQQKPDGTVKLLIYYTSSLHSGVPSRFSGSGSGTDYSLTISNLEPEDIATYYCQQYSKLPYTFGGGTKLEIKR    no binding
antibody 1284 (antibody, human IgG1, kappa, V domains shown, Chimeric IgG1 kappa) VH: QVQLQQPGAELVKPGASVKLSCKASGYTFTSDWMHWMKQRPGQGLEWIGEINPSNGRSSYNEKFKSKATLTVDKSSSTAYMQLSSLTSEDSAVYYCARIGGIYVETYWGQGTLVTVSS VL: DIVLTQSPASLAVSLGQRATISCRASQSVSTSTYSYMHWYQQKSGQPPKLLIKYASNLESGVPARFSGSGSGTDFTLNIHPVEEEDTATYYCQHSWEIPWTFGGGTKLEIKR    no binding
